# System: Danio rerio larvae (5 dpf)
# Protocol Text: difference in activity during first hour vs DMSO (percentage points); higher = more activity than DMSO
# Condition Info: 10 µM; exposure time 6 h
Structures can show the parent of a compound that is named as a salt.
Endpoint Label: difference in activity during first hour
Give a plain numeric answer without units written out.

// returns reported difference in activity during first hour for input O=C(O)C1(C(=O)O)CCC1.[NH2-].[NH2-].[Pt+2] [Carboplatin] -11.9

Given the compound CC(C)C[C@H](NC(=O)[C@H](Cc1ccccc1)NC(=O)c1cnccn1)B(O)O [Bortezomib] , what is its reported difference in activity during first hour? 3.67

Would you mind telling me what difference in activity during first hour value was observed for CC(=O)OCC[N+](C)(C)C [Acetylcholine (chloride)] ? -8.36

So what's the measured difference in activity during first hour for this one? COc1ccc(Cl)cc1C(=O)NCCc1ccc(S(=O)(=O)NC(=O)NC2CCCCC2)cc1 [Glyburide (potassium salt)] 10.9

Please report the recorded difference in activity during first hour for CN(C)CCC(c1ccc(Cl)cc1)c1ccccn1 (stereo not drawn) [Chlorpheniramine (maleate)] . -11.1

Could you share which difference in activity during first hour value was measured for CC(=O)[C@]1(O)Cc2c(O)c3c(c(O)c2[C@@H](O[C@H]2C[C@H](N)[C@H](O)[C@H](C)O2)C1)C(=O)c1ccccc1C3=O [Idarubicin (hydrochloride)] ? -5.02

Param item = CN(C)CCC=C1c2ccccc2CCc2ccccc21 [Amitriptyline (hydrochloride)] ; retrieve measured difference in activity during first hour. -3.87

I would be grateful if you could share the reported difference in activity during first hour for CN(C)CCc1c[nH]c2ccc(C[C@H]3COC(=O)N3)cc12 [Zolmitriptan] . -0.487

* * *

# Test system: Danio rerio larvae (5 dpf)
# Protocol Text: difference in habituation to acoustic stimuli vs DMSO (percentage points); higher = more habituation than DMSO
# Condition Info: 10 µM; exposure time 6 h
Where a name gives a salt, the structure may show the parent alone.
Kindly return satisfied if reported difference in habituation to acoustic stimuli is no lower than -1; return not satisfied if it is lower.

Item CCC(C)(C)C(=O)O[C@H]1C[C@@H](C)C=C2C=C[C@H](C)[C@H](CC[C@@H]3C[C@@H](O)CC(=O)O3)[C@H]21 [Simvastatin] with difference in habituation to acoustic stimuli of -1 or above? satisfied

Answer whether difference in habituation to acoustic stimuli of CC(C)(C)c1nc(-c2cccc(NS(=O)(=O)c3c(F)cccc3F)c2F)c(-c2ccnc(N)n2)s1 [Dabrafenib] is greater than or equal to -1. not satisfied

Given Cc1[nH]c(=O)c(C#N)cc1-c1ccncc1 [Milrinone] , state whether its difference in habituation to acoustic stimuli is at least -1. satisfied

# bool: difference in habituation to acoustic stimuli of CC(C)C(=O)Nc1ccc([N+](=O)[O-])c(C(F)(F)F)c1 [Flutamide] >= -1 not satisfied

For this compound, is measured difference in habituation to acoustic stimuli -1 or higher? Cc1cccc(Nc2ccccc2C(=O)O)c1C [Mefenamic Acid] not satisfied

Item C[C@@H]1NC(=O)[C@@H](N)CNC(=O)[C@H](C2CCNC(=N)N2)NC(=O)/C(=C/NC(N)=O)NC(=O)[C@H](CNC(=O)CC(N)CCCN)NC1=O.N=C1NCC[C@H]([C@@H]2NC(=O)/C(=C/NC(N)=O)NC(=O)[C@H](CNC(=O)C[C@@H](N)CCCN)NC(=O)[C@H](CO)NC(=O)[C@@H](N)CNC2=O)N1 [Capreomycin (sulfate)] with difference in habituation to acoustic stimuli of -1 or above? satisfied

Please indicate if the recorded difference in habituation to acoustic stimuli for CN(C)CCCN1c2ccccc2CCc2ccc(Cl)cc21 [Clomipramine (hydrochloride)] meets or exceeds -1. not satisfied

Record CC(c1cc2ccccc2s1)N(O)C(N)=O (stereo not drawn) [Zileuton] ; criterion: difference in habituation to acoustic stimuli no lower than -1. Met? satisfied

difference in habituation to acoustic stimuli >= -1 for CON(C)Cc1ccc(O)c2c1C[C@H]1C[C@H]3[C@H](N(C)C)C(=O)C(C(N)=O)=C(O)[C@@]3(O)C(=O)C1=C2O ? satisfied

# check: difference in habituation to acoustic stimuli of CCCCCOc1ccc(-c2cc(-c3ccc(C(=O)N[C@H]4C[C@@H](O)[C@@H](O)NC(=O)[C@@H]5[C@@H](O)[C@@H](C)CN5C(=O)[C@H]([C@H](O)CC(N)=O)NC(=O)[C@H]([C@H](O)[C@@H](O)c5ccc(O)c(OS(=O)(=O)O)c5)NC(=O)[C@@H]5C[C@@H](O)CN5C(=O)[C@H]([C@@H](C)O)NC4=O)cc3)no2)cc1 [Micafungin (sodium salt)] is greater than or equal to -1 not satisfied

Identify whether the reported difference in habituation to acoustic stimuli of the following compound is -1 or greater: Nc1cccc2c1CN(C1CCC(=O)NC1=O)C2=O (stereo not drawn) [Lenalidomide] satisfied

Could you verify whether the entry Cc1ncc([N+](=O)[O-])n1CC(C)O (stereo not drawn) [Secnidazole] shows difference in habituation to acoustic stimuli of no less than -1? not satisfied

Would you say COc1cccc2c1C(=O)c1c(O)c3c(c(O)c1C2=O)C[C@@](O)(C(=O)CO)C[C@@H]3O[C@H]1C[C@H](N)[C@@H](O)[C@H](C)O1 [Epirubicin (hydrochloride)] shows difference in habituation to acoustic stimuli at minimum -1? satisfied

* * *

# System: Danio rerio larvae (5 dpf)
# Protocol Text: difference in startle response vs DMSO (percentage points); higher = stronger startle than DMSO
# Condition Info: 10 µM; exposure time 6 h
Where a name gives a salt, the structure may show the parent alone.
Endpoint Label: difference in startle response
Just the number, please.

Please look up its difference in startle response: COc1cc(Cc2cnc(N)nc2N)cc(OC)c1OC 3.93

Please look up its difference in startle response: COC(=O)Nc1nc2cc(C(=O)c3ccccc3)ccc2[nH]1 -4.07

Can you look up the measured difference in startle response of C[C@H](N[C@@H](CCc1ccccc1)C(=O)O)C(=O)N1CCC[C@H]1C(=O)O [Enalaprilat (hydrate)] for me? -2.87

Consider the compound shown here: CN(C)CCC(c1ccc(Br)cc1)c1ccccn1 (stereo unspecified) [Brompheniramine (maleate)] What is its recorded difference in startle response? -2.92

For the compound shown here, COCC(=O)Nc1c(I)c(C(=O)NCC(O)CO)c(I)c(C(=O)N(C)CC(O)CO)c1I (stereo unspecified) [Iopromide] , give the reported difference in startle response. -1.37

Fill in the blank: the reported difference in startle response of CC(CN(C)C)CN1c2ccccc2CCc2ccccc21 (stereo unspecified) [Trimipramine (maleate)] is ____. -3.72

Quick check: difference in startle response of CC(C)(O/N=C(\C(=O)N[C@@H]1C(=O)N2C(C(=O)[O-])=C(C[n+]3ccccc3)CS[C@H]12)c1csc(N)n1)C(=O)O [Ceftazidime (hydrate)] ? 0.0878

Name the reported difference in startle response value associated with the compound CCCCN1CCCCC1C(=O)Nc1c(C)cccc1C (stereo unspecified) -2.63

Quick check: difference in startle response of Nc1nnc(-c2cccc(Cl)c2Cl)c(N)n1 ? -1.15

Query: difference in startle response; subject: CC(=O)OCC(=O)[C@@]1(OC(C)=O)[C@@H](C)C[C@H]2[C@@H]3C[C@H](F)C4=CC(=O)C=C[C@]4(C)[C@@]3(F)[C@@H](O)C[C@@]21C [Diflorasone Diacetate] -5.05

Fill in the blank: the reported difference in startle response of Cc1c(-c2ccc(O)cc2)n(Cc2ccc(OCCN3CCCCCC3)cc2)c2ccc(O)cc12 [Bazedoxifene (acetate)] is ____. 1.08

Consider the compound COCCCOc1ccnc(C[S+]([O-])c2nc3ccccc3[nH]2)c1C (stereo unspecified) [Rabeprazole (sodium salt)] and give its measured difference in startle response. -0.57

Which difference in startle response is listed for C[C@@](Cc1ccc(O)c(O)c1)(NN)C(=O)O [Carbidopa (hydrate)] ? 3.77

Return reported difference in startle response; argument: CN(C)c1nc(N(C)C)nc(N(C)C)n1 -2.53

Reported difference in startle response for CC1(C)O[C@@H]2C[C@H]3[C@@H]4CCC5=CC(=O)C=C[C@]5(C)[C@@]4(F)[C@@H](O)C[C@]3(C)[C@]2(C(=O)CO)O1 [Triamcinolone acetonide] : what is it? -2.41

What does the data say about its difference in startle response? Entry: CN1C2CCCC1CC(NC(=O)c1nn(C)c3ccccc13)C2 (stereo unspecified) [Granisetron (hydrochloride)] 0.419
